# ASSAY_REMARKS: rhodamine 123 fluorescence quenching, dose response, artefact control for mitochondrial permeability transition pore inhibitor project, biochemical, dry powder samples (AID 720723)
# EXPERIMENTAL_PARAMETERS: Rhodamine 123 fluorescence quenching counterscreen, cell-free
The source made the active and inactive calls. No cut-off is given here; in the data, nearly all actives have IC50 up to about 87 µM.
OBSERVATION_TYPE: IC50

In the examples that follow, each entry is paired with its recorded IC50.
COc1ccc(-n2cc(CNC3CCN(C)CC3)c(-c3cccc(F)c3)n2)cc1: > 100 µM (inactive)
CCN(CC)c1ccc(NC(=O)c2cc(Cl)ccc2OC)cc1: 41.2 µM (active)
C=CCNCCCOc1ccc(C)cc1Br: 69.6 µM (active)

Annotate the molecule `CCOC(=O)N1CCN(S(=O)(=O)c2ccc(C(=O)N(CCCN(C)C)c3nc4c(C)c(C)ccc4s3)cc2)CC1` with its measured IC50.
56.8 µM (active)

Annotate the molecule `COC(=O)c1c(NC(=O)C2CCCCC2)sc2c1CC(C)(C)NC2(C)C` with its measured IC50.
48.1 µM (active)

Annotate the molecule `CCN(CC)CCCN=Cc1c(O)n(Cc2ccccc2)c(=O)c2ccccc12` with its measured IC50.
> 100 µM (inactive)

Annotate the molecule `COc1cc(NC(=O)c2cc(-c3cccc(O)c3)on2)cc(OC)c1OC` with its measured IC50.
> 100 µM (inactive)

Annotate the molecule `N=c1sccn1CC(=O)Nc1cccc(Oc2ccccc2)c1` with its measured IC50.
54.4 µM (active)

---

# ASSAY_REMARKS: rhodamine 123 fluorescence quenching, dose response, artefact control for mitochondrial permeability transition pore inhibitor project, biochemical, dry powder samples (AID 720723)
# EXPERIMENTAL_PARAMETERS: Rhodamine 123 fluorescence quenching counterscreen, cell-free
Calls of active or inactive are those of the source. The limit is not given here; nearly all actives have IC50 up to about 87 µM.
Select the matching outcome among active, inactive

Use these answered entries as a reference point.
O=C(CC1NCCc2ccccc21)Nc1ccc(Cl)cc1 (configuration not stated): active
COc1ccc(Cl)cc1C(=O)Nc1ccc(CN2CCCCC2)cc1: active
N#Cc1c(NCCN)nc(-c2ccco2)c2c1CCCC2: active
Cc1cc(C)c2nc(N(CCCN(C)C)C(=O)c3ccc(S(=O)(=O)N4CCCCCC4)cc3)sc2c1: active
CC(C)(C)c1ccccc1OCCCCCNCCO: active
Cc1cc(C)c2nc(N(CCCN(C)C)C(=O)C3=COCCO3)sc2c1: inactive

# fetch the recorded call for `Cc1ccc2nc(N(CCN(C)C)C(=O)/C=C/c3cccs3)sc2c1` here
inactive

# fetch the recorded call for `C=CCNCCOCCOc1ccc(Cl)cc1C(C)(C)C` here
active

# fetch the recorded call for `C=CCNCCOc1ccc(C(C)(C)c2ccccc2)cc1` here
active

# fetch the recorded call for `CNCCC=C1c2ccccc2CCc2ccccc21` here
inactive

# fetch the recorded call for `COc1cc(CNCCO)cc(Cl)c1OCc1ccccc1Cl` here
active

# fetch the recorded call for `Cc1ccc2nc(N(CCCN(C)C)C(=O)CCc3ccccc3)sc2c1` here
active
